TARGET OR TEST SYSTEM: H1047R PIK3CA enzyme (Homo sapiens, UniProt P42336, H1047R)
Sequence (P42336 whole entry H1047R): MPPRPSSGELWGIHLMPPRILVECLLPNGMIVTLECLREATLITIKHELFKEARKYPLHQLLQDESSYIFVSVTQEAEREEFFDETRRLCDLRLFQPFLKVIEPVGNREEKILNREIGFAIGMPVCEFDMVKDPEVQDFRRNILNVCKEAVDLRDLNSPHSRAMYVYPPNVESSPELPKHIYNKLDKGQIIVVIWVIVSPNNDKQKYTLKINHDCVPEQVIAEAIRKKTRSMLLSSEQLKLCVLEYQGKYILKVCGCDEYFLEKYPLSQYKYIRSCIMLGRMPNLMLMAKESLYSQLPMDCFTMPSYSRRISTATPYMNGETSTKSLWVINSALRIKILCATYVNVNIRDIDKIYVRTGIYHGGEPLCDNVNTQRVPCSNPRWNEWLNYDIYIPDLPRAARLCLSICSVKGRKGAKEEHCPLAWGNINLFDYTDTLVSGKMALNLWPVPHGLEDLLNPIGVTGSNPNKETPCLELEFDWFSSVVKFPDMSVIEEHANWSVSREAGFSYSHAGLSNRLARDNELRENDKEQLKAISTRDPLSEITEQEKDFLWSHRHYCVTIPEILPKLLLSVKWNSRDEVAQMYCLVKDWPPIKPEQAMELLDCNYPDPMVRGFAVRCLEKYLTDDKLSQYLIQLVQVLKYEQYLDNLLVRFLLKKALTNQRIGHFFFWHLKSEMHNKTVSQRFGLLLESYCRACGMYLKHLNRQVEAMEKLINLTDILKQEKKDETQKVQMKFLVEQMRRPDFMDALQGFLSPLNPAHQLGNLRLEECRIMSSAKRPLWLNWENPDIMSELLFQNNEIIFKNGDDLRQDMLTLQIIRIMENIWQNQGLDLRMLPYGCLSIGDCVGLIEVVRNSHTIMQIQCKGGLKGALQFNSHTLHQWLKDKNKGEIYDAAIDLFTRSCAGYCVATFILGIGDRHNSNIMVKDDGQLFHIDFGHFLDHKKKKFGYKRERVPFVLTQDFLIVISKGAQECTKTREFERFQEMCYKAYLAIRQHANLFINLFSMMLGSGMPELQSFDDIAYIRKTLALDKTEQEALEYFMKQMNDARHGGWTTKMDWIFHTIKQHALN
Sequence (P27986 whole entry partner): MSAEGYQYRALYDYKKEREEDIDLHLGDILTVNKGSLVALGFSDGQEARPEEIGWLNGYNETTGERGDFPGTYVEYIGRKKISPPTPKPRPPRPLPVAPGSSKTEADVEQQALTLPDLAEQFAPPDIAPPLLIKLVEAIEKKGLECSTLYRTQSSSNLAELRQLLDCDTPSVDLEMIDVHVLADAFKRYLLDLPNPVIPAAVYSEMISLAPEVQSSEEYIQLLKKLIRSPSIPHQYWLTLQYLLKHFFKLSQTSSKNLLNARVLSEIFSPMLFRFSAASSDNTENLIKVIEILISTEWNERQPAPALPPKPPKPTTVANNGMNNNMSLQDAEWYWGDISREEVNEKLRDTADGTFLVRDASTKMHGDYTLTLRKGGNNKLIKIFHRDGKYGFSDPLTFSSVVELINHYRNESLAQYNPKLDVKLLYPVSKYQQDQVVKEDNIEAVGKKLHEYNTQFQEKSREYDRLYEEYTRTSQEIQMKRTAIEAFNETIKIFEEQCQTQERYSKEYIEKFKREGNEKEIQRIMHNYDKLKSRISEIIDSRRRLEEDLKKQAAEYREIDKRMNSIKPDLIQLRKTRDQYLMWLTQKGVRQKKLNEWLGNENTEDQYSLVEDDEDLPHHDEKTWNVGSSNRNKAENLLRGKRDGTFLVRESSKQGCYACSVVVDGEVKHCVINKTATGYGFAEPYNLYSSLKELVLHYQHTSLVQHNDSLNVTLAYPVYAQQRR
METHOD NOTES: ADP-Glo Biochemical PIK3CA Kinase Assay
pIC50: −log10 of the molar value.
RECORDED METRIC: pIC50

Past entries and their recorded results:
Nc1nnc2ccc(-c3cc(NC(=O)c4cc(F)cc(C(F)(F)F)c4)c4c(c3)C(=O)NC4c3cc(F)ccc3Cl)cn12 (stereo not shown) ... ≥ 7.00
O=C1NC(c2cnccc2Cl)c2c(NC(=O)c3nsc4ccccc34)cccc21 (stereo not shown) ... 6.00 to 6.30
O=C(Nc1cc(-c2cc3ccccc3[nH]2)cc2c1C(c1cc(F)ccc1Cl)NC2=O)c1cc(F)cc(C(F)(F)F)c1 (stereo not shown) ... ≥ 7.00

Enquiry: Form field - read-out: pIC50; system: H1047R PIK3CA enzyme (Homo sapiens, UniProt P42336, H1047R); submitted item: O=C(Nc1cc(-n2cncn2)cc2c1C(c1cc(F)ccc1Cl)NC2=O)c1cc(F)cc(C(F)(F)F)c1 (stereo not shown)
Return: ≥ 7.00

Enquiry: Find the measured pIC50: item O=C1NC(c2cc(F)ccc2Cl)c2c(Nc3n[nH]c4c(C(F)(F)F)cc(F)cc34)cc(-c3ccc4ncnn4c3)cc21 (stereo not shown) , target or system H1047R PIK3CA enzyme (Homo sapiens, UniProt P42336, H1047R).
Return: ≥ 7.00

Enquiry: For H1047R PIK3CA enzyme (Homo sapiens, UniProt P42336, H1047R), provide pIC50 of "O=C(Nc1cc(-c2ccc3nc(Cl)nn3c2)cc2c1[C@@H](c1cc(F)ccc1Cl)NC2=O)c1cc(F)cc(C(F)(F)F)c1" please.
Return: 5.00 to 6.00

Enquiry: Test system H1047R PIK3CA enzyme (Homo sapiens, UniProt P42336, H1047R); read-out pIC50; what value for O=C(Nc1cc(Br)cc2c1C(c1cc(F)ccc1C(F)F)NC2=O)c1cc(F)cc(C(F)(F)F)c1 (stereo not shown) ?
Return: ≥ 7.00
